Tested system: T1, biotinylated recombinant human TNFα (human, UniProt P01375 77-233, biotinylated (D-biotinyl-ε-aminocaproic acid N-hydroxysuccinimide ester, 2:1 molar ratio of biotin to rhTNFα))
T1 construct: mature; Immobilized via streptavidin on the BIAcore chip; also called biotinylated rhTNFα; biotinylated rhTNF
T1 sequence (P01375 77-233 limits assumed): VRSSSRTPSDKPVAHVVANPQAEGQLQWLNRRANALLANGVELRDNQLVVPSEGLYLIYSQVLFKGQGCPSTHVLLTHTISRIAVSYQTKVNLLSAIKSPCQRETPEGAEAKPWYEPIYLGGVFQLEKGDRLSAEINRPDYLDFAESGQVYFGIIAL
Test: SPR (BIAcore), biotinylated rhTNFα, scFv
Endpoint: koff

{"Binder": "VH1G1/2SD4 VL scFv (scFv, V domains shown, scFv) VH: QVQLVESGGGLVQPGRSLRLSCAASGFTFDDYAMHWVRQAPGKGLDWVSAITWNSGHIDYADSVEGRFAVSRDNAKNALYLQMNSLRPEDTAAYYCAKASYLSTSSSLDYWGQGTLVTVSS VL: DIQMTQSPSSLSASIGDRVTITCRASQGIRNYLAWYQQKPGKAPKLLIYAASTLQSGVPSRFSGSGSGTDFTLTISSLQPEDVATYYCQKYNSAPYAFGQGTKVEIK", "Endpoint": "koff", "Data value": "0.0214 s⁻¹"}
{"Binder": "2SD4 VH/VLLOH10 scFv (scFv, V domains shown, scFv) VH: QVQLVESGGGLVQPGRSLRLSCAASGFTFDDYAMHWVRQAPGKGLDWVSAITWNSGHIDYADSVEGRFAVSRDNAKNALYLQMNSLRPEDTAVYYCTKASYLSTSSSLDNWGQGTLVTVSS VL: DIQMTQSPSSLSASIGDRVTITCRASQGIRNYLAWYQQKPGKAPKLLIYAASTLQSGVPSRFSGSGSGTDFTLTISSLQPEDVATYYCQKYNSAAYSFGQGTKVEIK", "Endpoint": "koff", "Data value": "0.0112 s⁻¹"}
{"Binder": "VH1B12/2SD4 VL scFv (scFv, V domains shown, scFv) VH: QVQLVESGGGLVQPGRSLRLSCAASGFTFDDYAMHWVRQAPGKGLDWVSAITWNSGHIDYADSVEGRFAVSRDNAKNALYLQMNSLRPEDTAVYYCAKASYLSTSFSLDYWGQGTLVTVSS VL: DIQMTQSPSSLSASIGDRVTITCRASQGIRNYLAWYQQKPGKAPKLLIYAASTLQSGVPSRFSGSGSGTDFTLTISSLQPEDVATYYCQKYNSAPYAFGQGTKVEIK", "Endpoint": "koff", "Data value": "0.0101 s⁻¹"}
{"Binder": "2SD4 VH/VLLOG7 scFv (scFv, V domains shown, scFv) VH: QVQLVESGGGLVQPGRSLRLSCAASGFTFDDYAMHWVRQAPGKGLDWVSAITWNSGHIDYADSVEGRFAVSRDNAKNALYLQMNSLRPEDTAVYYCTKASYLSTSSSLDNWGQGTLVTVSS VL: DIQMTQSPSSLSASIGDRVTITCRASQGIRNYLAWYQQKPGKAPKLLIYAASTLQSGVPSRFSGSGSGTDFTLTISSLQPEDVATYYCQKYNSAPYNFGQGTKVEIK", "Endpoint": "koff", "Data value": "0.0156 s⁻¹"}
{"Binder": "VH1B11/2SD4 VL scFv (scFv, V domains shown, scFv) VH: QVQLVESGGGLVQPGRSLRLSCAASGFTFDDYAMHWVRQAPGKGLDWVSAITWNSGHIDYADSVEGRFAVSRDNAKNALYLQMNSLRPEDTAVYYCTKASYLSTSSSLDKWGQGTLVTVSS VL: DIQMTQSPSSLSASIGDRVTITCRASQGIRNYLAWYQQKPGKAPKLLIYAASTLQSGVPSRFSGSGSGTDFTLTISSLQPEDVATYYCQKYNSAPYAFGQGTKVEIK", "Endpoint": "koff", "Data value": "0.0098 s⁻¹"}
